inhibition at 200 µM: recorded values
target: T2R10 (TAS2R10) (Homo sapiens, UniProt Q9NYW0); construct: expressed in transfected cells; host or cells: cells expressing a promiscuous G protein (e.g., G16g44); assay: FLIPR calcium assay, block of bitter agonist response, T2R10; format: cell-based; settings: unsaturated fatty acid concentration of 200 µM, cells stimulated with known bitter agonist, read-out: percentage block of cellular response over baseline, 10
Sequence (Q9NYW0 whole entry): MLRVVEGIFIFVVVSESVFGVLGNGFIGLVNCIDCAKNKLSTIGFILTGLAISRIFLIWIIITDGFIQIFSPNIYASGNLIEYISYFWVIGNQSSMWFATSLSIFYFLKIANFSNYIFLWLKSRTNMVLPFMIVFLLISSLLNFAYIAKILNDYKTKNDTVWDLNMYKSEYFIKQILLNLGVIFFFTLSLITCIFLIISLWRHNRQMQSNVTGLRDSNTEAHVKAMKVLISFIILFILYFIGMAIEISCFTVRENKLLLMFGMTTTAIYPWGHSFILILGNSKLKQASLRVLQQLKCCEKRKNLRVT

# MOLECULE, MEASUREMENT TARGET, PARAMETER MEASURED, OBS VALUE
data = [
    ("C=CCCCCCC(=O)O [Compound 115]", "T2R10 (TAS2R10) (Homo sapiens, UniProt Q9NYW0)", "inhibition at 200 µM", "> 25%"),
]

Short answer for CC(C)=CCC/C(C)=C/C(=O)O [Compound 129] : inhibition at 200 µM was > 65%

Short answer for CC(C)/C=C/CCCCC(=O)O [Compound 123] : inhibition at 200 µM was > 30%

Short answer for CCCCCC/C=C\CCCC(=O)O [Compound 124] : inhibition at 200 µM was > 80%
